# Test system: human APOE RNA
# test: Dose-dependent inhibition of human APOE RNA in HepG2 cells, electroporation, 50,000 cells per well, RT-PCR normalized to GAPDH (Example 4, Tables 8-10)
# Format: cell-based
# particulars: 82 nM; HepG2, electroporation, 24-hour treatment
Strand notation (5' to 3'): a small letter for the sugar, then the base; units joined by * are phosphorothioate-linked, units joined directly phosphodiester-linked; [ ] holds rarer units or linkages, { } end groups; capitals alone tell only the bases. [ms] = mesyl phosphoramidate linkage; k = constrained ethyl (cEt); [5mC] = 5-methylcytosine; d = 2'-deoxy (DNA)
experimental readout: APOE RNA (% UTC)

[[record]]
substance = "1746810 (k[5mC]*dT[ms]kT*dG[ms]dG[ms]kT*dG[ms]dA[ms]dA[ms]dT*d[5mC]*dT*dT*dT*dA[ms]dT*dT[ms]kA*kA*kA; antisense) [Compound 1746810]"
experimental_readout = "APOE RNA (% UTC)"
readout_value = 77

[[record]]
substance = "1746803 (k[5mC]*dT[ms]dT[ms]kG*dG[ms]kT*dG[ms]dA[ms]dA[ms]dT*d[5mC]*dT*dT*dT*dA[ms]dT*kT*dA[ms]kA*kA; antisense) [Compound 1746803]"
experimental_readout = "APOE RNA (% UTC)"
readout_value = 114

[[record]]
substance = "1746797 (k[5mC]*kT*dT[ms]dG[ms]dG[ms]kT*dG[ms]dA[ms]dA[ms]dT*d[5mC]*dT*dT*dT*dA[ms]dT*kT*dA[ms]kA*kA; antisense) [Compound 1746797]"
experimental_readout = "APOE RNA (% UTC)"
readout_value = 143

[[record]]
substance = "1746800 (k[5mC]*dT[ms]kT*dG[ms]dG[ms]kT*dG[ms]dA[ms]dA[ms]dT*d[5mC]*dT*dT*dT*dA[ms]dT*kT*dA[ms]kA*kA; antisense) [Compound 1746800]"
experimental_readout = "APOE RNA (% UTC)"
readout_value = 115

[[record]]
substance = "1746799 (k[5mC]*dT[ms]kT*dG[ms]kG*dT[ms]dG[ms]dA[ms]dA[ms]dT*d[5mC]*dT*dT*dT*dA[ms]dT*kT*dA[ms]kA*kA; antisense) [Compound 1746799]"
experimental_readout = "APOE RNA (% UTC)"
readout_value = 125

[[record]]
substance = "1746811 (k[5mC]*dT[ms]dT[ms]kG*kG*dT[ms]dG[ms]dA[ms]dA[ms]dT*d[5mC]*dT*dT*dT*dA[ms]dT*dT[ms]kA*kA*kA; antisense) [Compound 1746811]"
experimental_readout = "APOE RNA (% UTC)"
readout_value = 95

[[record]]
substance = "1747052 (k[5mC]*dT[ms]kT*kG*dG[ms]kT*dG[ms]dA[ms]dA[ms]dT*d[5mC]*dT*dT*dT*dA[ms]dT*kT*dA[ms]dA[ms]kA; antisense) [Compound 1747052]"
experimental_readout = "APOE RNA (% UTC)"
readout_value = 127

[[record]]
substance = "1746791 (k[5mC]*dT[ms]dT[ms]kG*kG*dT[ms]dG[ms]dA[ms]dA[ms]dT*d[5mC]*dT*dT*dT*dA[ms]dT*kT*kA*dA[ms]kA; antisense) [Compound 1746791]"
experimental_readout = "APOE RNA (% UTC)"
readout_value = 88

[[record]]
substance = "1746784 (k[5mC]*kT*kT*dG[ms]dG[ms]dT[ms]dG[ms]dA[ms]dA[ms]dT*d[5mC]*dT*dT*dT*dA[ms]dT*kT*kA*dA[ms]kA; antisense) [Compound 1746784]"
experimental_readout = "APOE RNA (% UTC)"
readout_value = 80

[[record]]
substance = "1746804 (k[5mC]*kT*kT*dG[ms]dG[ms]dT[ms]dG[ms]dA[ms]dA[ms]dT*d[5mC]*dT*dT*dT*dA[ms]dT*dT[ms]kA*kA*kA; antisense) [Compound 1746804]"
experimental_readout = "APOE RNA (% UTC)"
readout_value = 81

